# measurement description: Metabolic stability in mouse liver microsomes assessed as parent compound remaining at 1 uM preincubated for 5 mins followed by NADPH addition measured after 30 mins by LC-MS/MS analysis
# Type: ADME, microsome
# assay setup: read-out: Stability
Hi there, I'd appreciate the recorded remaining at 0.5 h, 1 µM for every entry that follows.
Just the number in %, nothing appended.

Input: GET /values?readout=remaining at 0.5 h, 1 µM&item= Nc1ccc(-c2cncc(OCc3ccc(Cl)cc3Cl)c2)cn1
Output: 16.1

Input: GET /values?readout=remaining at 0.5 h, 1 µM&item= C[C@@H](Oc1cncc(-c2ccc(C#N)s2)c1)c1c(Cl)ccc(F)c1Cl
Output: 32.3

Input: GET /values?readout=remaining at 0.5 h, 1 µM&item= C[C@@H](Oc1cncc(-c2cnc(N)nc2)c1)c1c(Cl)ccc(F)c1Cl
Output: 46.5

Input: GET /values?readout=remaining at 0.5 h, 1 µM&item= N#Cc1ccc(-c2cncc(OCc3ccc(Cl)cc3Cl)c2)s1
Output: 38.8

Input: GET /values?readout=remaining at 0.5 h, 1 µM&item= O=C(NCc1c(F)cccc1F)c1sccc1OCc1ccc(Cl)cc1Cl
Output: 6.4

* * *

Hi there, I'd appreciate the recorded remaining at 0.5 h, 1 µM for every entry that follows.
# measurement description: Metabolic stability in rat liver microsomes assessed as parent compound remaining at 1 uM preincubated for 5 mins followed by NADPH addition measured after 30 mins by LC-MS/MS analysis
# Format: ADME, microsome
# assay setup: read-out: Stability
Just the number in %, nothing appended.

Input: GET /values?readout=remaining at 0.5 h, 1 µM&item= O=C(NCc1c(F)cccc1F)c1sccc1OCc1ccc(Cl)cc1Cl
Output: 28.3

Input: GET /values?readout=remaining at 0.5 h, 1 µM&item= C[C@@H](Oc1cncc(-c2cnc(N)nc2)c1)c1c(Cl)ccc(F)c1Cl
Output: 56.4

Input: GET /values?readout=remaining at 0.5 h, 1 µM&item= C[C@@H](Oc1cncc(-c2ccc(C#N)s2)c1)c1c(Cl)ccc(F)c1Cl
Output: 14.7

Input: GET /values?readout=remaining at 0.5 h, 1 µM&item= N#Cc1ccc(-c2cncc(OCc3ccc(Cl)cc3Cl)c2)s1
Output: 64.3

Input: GET /values?readout=remaining at 0.5 h, 1 µM&item= Nc1ccc(-c2cncc(OCc3ccc(Cl)cc3Cl)c2)cn1
Output: 10.3

* * *

# measurement description: Half life in Sprague-Dawley rat at 10 mg/kg, po administered as single dose by LC-MS/MS analysis
# Assay type: ADME, organism-based
# assay setup: in vivo
test readout: half-life (h)
Just the number in h, nothing appended.

Input: GET /values?readout=half-life&item= C[C@@H](Oc1cncc(-c2cnc(N)nc2)c1)c1c(Cl)ccc(F)c1Cl
Output: 1.53

* * *

# measurement description: MRT (0 to t) in Sprague-Dawley rat at 10 mg/kg, po administered as single dose by LC-MS/MS analysis
# Format: ADME, organism-based
# assay setup: in vivo
test readout: MRT last (h)
Just the number in h, nothing appended.

Input: GET /values?readout=MRT last&item= C[C@@H](Oc1cncc(-c2cnc(N)nc2)c1)c1c(Cl)ccc(F)c1Cl
Output: 3.06

* * *

# target entity: Phosphatidylinositol 3,4,5-trisphosphate 5-phosphatase 2 (Homo sapiens)
# Sequence (whole entry): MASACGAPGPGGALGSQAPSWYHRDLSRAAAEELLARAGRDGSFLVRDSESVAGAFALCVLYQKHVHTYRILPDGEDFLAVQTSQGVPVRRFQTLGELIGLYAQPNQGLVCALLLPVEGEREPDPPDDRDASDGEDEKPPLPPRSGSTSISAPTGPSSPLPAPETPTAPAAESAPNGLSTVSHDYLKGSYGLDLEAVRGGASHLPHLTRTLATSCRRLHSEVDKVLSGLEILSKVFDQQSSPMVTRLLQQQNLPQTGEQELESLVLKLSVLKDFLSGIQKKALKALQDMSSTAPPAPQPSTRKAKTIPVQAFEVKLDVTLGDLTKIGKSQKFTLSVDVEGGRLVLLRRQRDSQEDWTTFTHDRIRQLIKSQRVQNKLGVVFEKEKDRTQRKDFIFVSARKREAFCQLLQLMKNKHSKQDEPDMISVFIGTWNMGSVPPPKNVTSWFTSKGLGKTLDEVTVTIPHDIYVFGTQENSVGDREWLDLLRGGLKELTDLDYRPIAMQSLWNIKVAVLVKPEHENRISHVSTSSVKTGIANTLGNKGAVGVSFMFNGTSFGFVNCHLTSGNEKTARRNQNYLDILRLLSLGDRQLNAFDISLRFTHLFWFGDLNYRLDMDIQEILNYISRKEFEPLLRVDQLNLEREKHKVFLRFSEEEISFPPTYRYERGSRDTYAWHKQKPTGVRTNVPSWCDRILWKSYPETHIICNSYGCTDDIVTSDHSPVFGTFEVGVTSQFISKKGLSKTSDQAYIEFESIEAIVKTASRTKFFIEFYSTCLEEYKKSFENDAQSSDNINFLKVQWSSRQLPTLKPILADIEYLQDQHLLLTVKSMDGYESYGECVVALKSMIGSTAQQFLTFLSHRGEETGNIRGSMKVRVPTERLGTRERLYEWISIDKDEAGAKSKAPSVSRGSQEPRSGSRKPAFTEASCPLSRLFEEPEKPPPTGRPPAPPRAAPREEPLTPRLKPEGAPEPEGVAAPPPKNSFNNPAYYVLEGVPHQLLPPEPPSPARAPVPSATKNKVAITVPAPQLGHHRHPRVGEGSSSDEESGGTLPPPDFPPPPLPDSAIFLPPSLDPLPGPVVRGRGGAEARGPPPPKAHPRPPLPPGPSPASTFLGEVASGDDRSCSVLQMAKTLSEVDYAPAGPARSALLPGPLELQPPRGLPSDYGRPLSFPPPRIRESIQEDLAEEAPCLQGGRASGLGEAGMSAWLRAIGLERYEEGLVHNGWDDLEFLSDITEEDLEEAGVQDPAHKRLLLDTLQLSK
# measurement description: Inhibition of SHIP2 (unknown origin) assessed as remaining enzyme activity at 30 uM using PtdIns(3,4,5)P3 as substrate preincubated for 20 mins followed by substrate addition measured for 50 mins by malachite green staining based assay relative to control
Label scheme for Activity: lower than 10% is 0 (no), 10% and above is 1 (yes).

Input: In plain terms: is recorded Activity at least 10% for C[C@@H](Oc1cncc(-c2cnc(N)nc2)c1)c1c(Cl)ccc(F)c1Cl ?
Output: 1 (yes)

Input: In plain terms: is recorded Activity at least 10% for CNc1ccc(-c2cncc(OCc3ccc(Cl)cc3Cl)c2)cn1 ?
Output: 0 (no)

Input: In plain terms: is recorded Activity at least 10% for Nc1ccc(-c2cncc(OCc3ccc(Cl)cc3Cl)c2)cn1 ?
Output: 0 (no)

Input: In plain terms: is recorded Activity at least 10% for C[C@@H](Oc1cncc(-c2cnn(C3CCOCC3)c2)c1)c1c(Cl)ccc(F)c1Cl ?
Output: 1 (yes)

Input: In plain terms: is recorded Activity at least 10% for C[C@@H](Oc1cncc(-c2cnn(C3CCNCC3)c2)c1)c1c(Cl)ccc(F)c1Cl ?
Output: 1 (yes)

Input: In plain terms: is recorded Activity at least 10% for C[C@H](Oc1cncc(-c2ccc(C#N)s2)c1)c1c(Cl)ccc(F)c1Cl ?
Output: 1 (yes)

Input: In plain terms: is recorded Activity at least 10% for C[C@@H](Oc1cncc(-c2cnc(N3CCNCC3)nc2)c1)c1c(Cl)ccc(F)c1Cl ?
Output: 0 (no)

Input: In plain terms: is recorded Activity at least 10% for Nc1ccc(-c2cccc(OCc3ccc(Cl)cc3Cl)n2)cn1 ?
Output: 1 (yes)

Input: In plain terms: is recorded Activity at least 10% for N#Cc1ccccc1COc1cncc(-c2cnn(C3CCNCC3)c2)c1 ?
Output: 1 (yes)

Input: In plain terms: is recorded Activity at least 10% for C[C@@H](Oc1cncc(-c2cnn(C)c2)c1)c1c(Cl)ccc(F)c1Cl ?
Output: 1 (yes)
